B1: LINE1-full (parent)
chain: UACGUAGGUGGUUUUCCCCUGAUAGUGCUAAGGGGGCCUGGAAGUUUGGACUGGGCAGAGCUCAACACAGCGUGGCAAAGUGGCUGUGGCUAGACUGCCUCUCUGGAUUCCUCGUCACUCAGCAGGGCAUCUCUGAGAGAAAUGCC

variants of: B1; experiment: self-cleavage, relative activity (ratio to wild type); higher = more cleavage; in vitro, sequencing; the parent is a self-cleaving ribozyme
Classification field: Fulfilled = self-cleavage at or over 1; Not fulfilled = self-cleavage under 1.

Example cases with answers are listed next.
sequence-chain: UACGUAGGUGGUUUUCCCCUGAUAGUGCUAAGGGGGCCUGGAAGUUUGGACUGGGCAGAGCUCAACGCAGCGUGGCAAAGUAGCUGUGGCUAGACUGCCUCUCUGGAUUCCUCGUCACUCAGCAGGGCAUCUCUGAGAGAAAUGCC [A67G G82A]
discrete-label: Not fulfilled

sequence-chain: UACGUAGGUGGUUUUCCCCUGAUAAUGCUAAGGGGGCCUGGAAGUUUGGACUGGGCAGAGCUCAACACAGCGUGGCAAAGUGGCAGUGGCUAGACUGCCUCUCUGGAUUCCUCGUCACUCAGCAGGGCAUCUCUGAGAGAAAUGCC [G25A U85A]
discrete-label: Not fulfilled

sequence-chain: UACGUAGGUGGUUUUCCCCUGAUAGUGCUAAGGGGGCCUGGAAGUUUGAACUGGGCAGAGCUCAACACAGCGUGGCAAAGUGGCUGUGGCUAGACUGCCUCUCUGGAUUCCUCGUCUCUCAGCAGGGCAUCUCUGAGAGAAAUGCC [G49A A117U]
discrete-label: Fulfilled

Decide: is the reported value of self-cleavage for UAUGUAGGUGGUUUUCCCCUGAUAGUGCUAAGGGGGCCUGGAAGUUUGGACUGGGCAGAGCUCAACACUGCGUGGCAAAGUGGCUGUGGCUAGACUGCCUCUCUGGAUUCCUCGUCACUCAGCAGGGCAUCUCUGAGAGAAAUGCC [C3U A69U] equal to or greater than 1? Not fulfilled

Say whether UACGUAGGUGGUUUUCCCCUGAUAGUGCUAAGGGGGCCUGGAAGUUUGGACUGGGCAGAGCUCAACACAGCGUGGCAGAAUGGCUGUGGCUAGACUGCCUCUCUGGAUUCCUCGUCACUCAGCAGGGCAUCUCUGAGAGAAAUGCC [A78G G80A] shows self-cleavage of 1 or more. Fulfilled

Check this variant for self-cleavage at or above 1: UACGUAGGUGGUUUUCCCCUGAUAGUGCUAAGGGGGCCUGGAAGUUUGGACUGGGCAGAGCUCAACACAGCGUGGCAAAGUGGCUGUGGCUAGACUGCCGCUCUGGAUUCCUCGUCACUCAGCAGGGCAUCUCUGGGAGAAAUGCC [U100G A136G] Not fulfilled
